# MEASUREMENT_TARGET: Bromodomain-containing protein 4 (Homo sapiens)
# ASSAY_METHOD_TEXT: Inhibition of recombinant His6-tagged human BRD4 bromodomain 1 expressed in Escherichia coli BL21(DE3)-R3-pRARE2 cells preincubated for 30 mins followed by H4KAc4 peptide substrate addition measured after 30 mins by AlphaScreen assay
# TEST_CONDITIONS: read-out: IC50
VALUE_KIND: IC50 (µM)
Write the number in µM without appending the unit.

# input Requested field: IC50. Item: `Cc1noc(C)c1-c1cc(O)cc(CNCc2ccccc2)c1`
# output 2.25

# input Next compound: Cc1noc(C)c1-c1cc(O)cc(C(O)c2ccncc2)c1 (centres undefined)
# output 0.303

# input Next compound: COc1ccc(C(O)c2cc(O)cc(-c3c(C)noc3C)c2)cc1 (centres undefined)
# output 0.585

# input Next compound: `Cc1noc(C)c1-c1cc(O)cc(CN2CCCC2)c1`
# output 3.27

# input Next compound: `Cc1noc(C)c1-c1cc(O)cc(CN2CCOCC2)c1`
# output 0.956

====

# ASSAY_METHOD_TEXT: Apparent half life in human liver microsomes at 3 uM
# Assay type: ADME, microsome
# TEST_CONDITIONS: read-out: t1/2(app)
VALUE_KIND: half-life at 3 µM (min)
Write the number in min without appending the unit.

# MOLECULE, VALUE_KIND, RESULT
data = [
    ("Cc1noc(C)c1-c1cc(O)cc(CN2CCC(F)(F)CC2)c1", "half-life at 3 µM", 27),
]

# input Requested field: half-life at 3 µM. Item: `COc1ccc2c(c1)[C@]13CCCC[C@@H]1[C@H](C2)N(C)CC3`
# output 54.5

# input Next molecule: Cc1noc(C)c1-c1cc(O)cc(C(O)c2cccnc2)c1 (centres undefined)
# output 388

# input Next molecule: Cc1noc(C)c1-c1cc(O)cc(C(O)c2ccccc2)c1 (centres undefined)
# output 39.8

====

# MEASUREMENT_TARGET: Bromodomain-containing protein 4 (Homo sapiens, UniProt O60885)
# ASSAY_METHOD_TEXT: Inhibition of recombinant His6-tagged human BRD4 bromodomain 1 expressed in Escherichia coli BL21(DE3)-R3-pRARE2 cells preincubated for 30 mins followed by H4KAc4 peptide substrate addition measured after 30 mins by AlphaScreen assay
# TEST_CONDITIONS: read-out: pIC50 (converted)
Okay, here is how we bin by IC50: lower level (below 500 nM), middle level (500 nM to below 1000 nM), upper level (1000 nM or more)

Answered examples (5):
# COMPOUND, QUALITATIVE_LABEL
data = [
    ("Cc1noc(C)c1-c1cc(O)cc(CN2CCN(C)CC2)c1", "upper level"),
    ("Cc1noc(C)c1-c1cc(O)cc(C(O)c2ccccc2F)c1 (centres undefined)", "upper level"),
    ("COc1ccc(C(O)c2cc(O)cc(-c3c(C)noc3C)c2)cc1 (centres undefined)", "middle level"),
    ("Cc1noc(C)c1-c1cc(O)cc(CN2CCCCC2)c1", "upper level"),
    ("Cc1noc(C)c1-c1cc(O)cc(C(O)c2cccc(F)c2)c1 (centres undefined)", "middle level"),
]

# input Category of `Cc1noc(C)c1-c1cc(O)cc(CN2CCC(F)(F)CC2)c1` , please.
# output lower level

# input Next compound: `Cc1noc(C)c1-c1cc(O)cc(C(=O)N2CCOCC2)c1`
# output upper level

# input Next compound: `Cc1noc(C)c1-c1cc(O)cc(CN2CCCC2)c1`
# output upper level
